assay: MRT (0 to infinity) in male CD-1 mouse at 1 mg/kg, ip measured for 0.083 to 48 hrs by HPLC/MS/MS analysis; type: ADME, organism-based; conditions: in vivo, time 0.083-48 hrs
RECORDED_METRIC: MRT inf (h)
One number for each entry, in h.

What value of measured MRT inf is listed for Fc1cc(-c2nc3c(C(F)(F)F)cc(C(F)(F)F)cc3[nH]2)cc(-c2nc3c(C(F)(F)F)cc(C(F)(F)F)cc3[nH]2)c1 ? 14.8

---

assay: Half life in male CD-1 mouse at 1 mg/kg, iv measured for 0.083 to 48 hrs by HPLC/MS/MS analysis; type: ADME, organism-based; details: in vivo, time 0.083-48 hrs
RECORDED_METRIC: half-life (min)
One number for each entry, in min.

What value of measured half-life is listed for Fc1cc(-c2nc3c(C(F)(F)F)cc(C(F)(F)F)cc3[nH]2)cc(-c2nc3c(C(F)(F)F)cc(C(F)(F)F)cc3[nH]2)c1 ? 307
